meta.source: paper PMC10384440

TEST_PROTOCOL: Cytotoxic effect on Huh-7 cells, cell viability assay with resazurin
Type: cell-based
MEASUREMENT_CONDITIONS: human, Huh-7 cells, Huh-7 cell line, resazurin; read-out: CC50
MEASURED_ENDPOINT: CC50 (µM)
All answers are understood in µM, so give the number only.

CC1(C)CC(NC(=O)C2Cc3c([nH]c4ccccc34)C3c4ccccc4C(=O)N23)CC(C)(C)N1 (centres unmarked)	60.8
Cc1ccc(CNC(=O)C2Cc3c([nH]c4ccccc34)C3c4ccccc4C(=O)N23)cc1 (centres unmarked)	46.2
O=C(NCCc1ccc(Cl)cc1)C1Cc2c([nH]c3ccccc23)C2c3ccccc3C(=O)N12 (centres unmarked)	30

Q) Find the measured CC50 of O=C(NCCc1c[nH]c2ccccc12)C1Cc2c([nH]c3ccccc23)C2c3ccccc3C(=O)N12 (centres unmarked) and report it.
A) 70.6

----------
System: DENV-2 subgenomic replicon in Huh-7 cells
TEST_PROTOCOL: NS5 protein production in Huh-7 DENV-2 replicon cells (ELISA)
Assay type: cell-based
MEASUREMENT_CONDITIONS: Dengue virus, DENV2; Huh-7 DENV-2 replicon, dose-response curve, 24 h
MEASURED_ENDPOINT: pIC50
A value of pIC50 is the negative decimal logarithm of a concentration given in moles per litre.

Q) Find the measured pIC50 of CC1(C)CC(NC(=O)C2Cc3c([nH]c4ccccc34)C3c4ccccc4C(=O)N23)CC(C)(C)N1 (stereo not shown) [M78] and report it.
A) 4.61

----------
TEST_PROTOCOL: Cytotoxic effect on Huh-7 cells, cell viability assay with resazurin
Format: cell-based
MEASUREMENT_CONDITIONS: human, Huh-7 cells; Huh-7; at 12.5, 25, and 50 µM; read-out: cellular viability
MEASURED_ENDPOINT: viability

Q) Find the measured viability of CC1(C)CC(NC(=O)C2Cc3c([nH]c4ccccc34)C3c4ccccc4C(=O)N23)CC(C)(C)N1 (stereo not shown) and report it.
A) ~100%

----------
TEST_PROTOCOL: Cytotoxic effect on Huh-7 cells, cell viability assay with resazurin
Type: cell-based
MEASUREMENT_CONDITIONS: human, CC50
MEASURED_ENDPOINT: CC50

Q) Find the measured CC50 of Cc1cc(C)cc(NC(=O)C(NC(=O)N2CC3CC(C2)c2cccc(=O)n2C3)C(C)C)c1 (stereo not shown) and report it.
A) > 100 µM
